Molecular target: TAR DNA-binding protein 43 (Homo sapiens) (UniProt Q13148)
Sequence (Q13148 whole entry): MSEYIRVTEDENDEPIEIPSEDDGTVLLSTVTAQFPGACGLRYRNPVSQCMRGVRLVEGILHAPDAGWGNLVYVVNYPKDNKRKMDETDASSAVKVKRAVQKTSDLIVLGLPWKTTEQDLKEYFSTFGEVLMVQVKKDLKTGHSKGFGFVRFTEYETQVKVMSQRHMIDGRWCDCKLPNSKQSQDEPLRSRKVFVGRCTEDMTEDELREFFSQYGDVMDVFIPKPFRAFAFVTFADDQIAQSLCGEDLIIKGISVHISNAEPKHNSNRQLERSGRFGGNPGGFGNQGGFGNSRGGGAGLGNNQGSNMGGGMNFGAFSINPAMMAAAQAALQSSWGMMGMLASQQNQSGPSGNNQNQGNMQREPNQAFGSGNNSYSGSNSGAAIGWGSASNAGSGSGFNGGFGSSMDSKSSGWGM
Experiment: qHTS of TDP-43 Inhibitors.
Format: functional
Screen size: about 410,000 compounds; about 7,200 (1.8%) were called active. Not shown: some 7% with an inconclusive outcome. The rule behind the calls is not given here. This is one part of a sample in which actives are shown more often than they occur.
In this exercise, the only acceptable responses are active, inactive

>  <compound>
O=C(O)Cc1ccccc1Nc1c(Cl)cccc1Cl

>  <category>
active

$$$$
>  <compound>
Cc1ccc(N(Cc2ccccc2)C(=O)c2cc(S(=O)(=O)N3CCOCC3)ccc2Cl)cc1

>  <category>
inactive

$$$$
>  <compound>
O=C(N/N=C/c1ccc(O)c2ncccc12)c1cccc(Br)c1

>  <category>
inactive

$$$$
>  <compound>
COc1ccc(OCC(O)COc2ccc(C(=O)O)cc2)cc1 (stereo not drawn)

>  <category>
active

$$$$
>  <compound>
O=C(Nc1cccc(F)c1)c1ccc2c(c1)OCCO2

>  <category>
inactive

$$$$

INPUT: // return assay outcome for Clc1ccc(-c2nnc(COc3ncnc4ccccc34)o2)cc1
OUTPUT: inactive

INPUT: Could you kindly confirm the outcome this assay logged for O=C(Nc1ccccc1)c1ccccc1NS(=O)(=O)c1ccc(Cl)s1 ?
OUTPUT: inactive

INPUT: Recorded test outcome, item COc1ccc(Cl)cc1NC(=O)C1CCCN(c2cc(C)nc3ncnn23)C1 (stereo not drawn)
OUTPUT: inactive

Values compiled from ChEMBL document CHEMBL1201862.
